assay: Cytotoxicity against human MT4 cells; assay type: cell-based
As shown below, each of these molecules has a reported CC50 value.
Express the result in µM but write the number alone.

Field: example entries. Status: answers known.
1. COC(=O)[C@H](C)NP(=O)(OC[C@@H]1C=C[C@H](n2cc(C)c(=O)[nH]c2=O)O1)Oc1cccc(C(F)(F)F)c1 (stereo not given in full) :: 66.1
2. COC(=O)[C@H](C)NP(=O)(OC[C@@H]1C=C[C@H](n2cc(C)c(=O)[nH]c2=O)O1)Oc1cccc(S(F)(F)(F)(F)F)c1 (stereo not given in full) :: 52.6
3. COC(=O)[C@H](C)NP(=O)(OC[C@@H]1C=C[C@H](n2cc(C)c(=O)[nH]c2=O)O1)Oc1ccc(C(F)(F)F)cc1 (stereo not given in full) :: 42.9
4. Cc1cn([C@H]2C=C[C@@H](CO)O2)c(=O)[nH]c1=O :: 313

Query CC50 for COC(=O)[C@H](C)NP(=O)(OC[C@@H]1C=C[C@H](n2cc(C)c(=O)[nH]c2=O)O1)Oc1ccccc1 (stereo not given in full)
251
